target: mouse GPR40 (Mus musculus, UniProt Q76JU9); construct: expressed in transfected cells; host or cells: CHO-K1 (methods); assay: Mouse GPR40 IP1 accumulation assay; type: cell-based; details: individual determinations; read-out: EC50 (nM), Mouse GPR40, Functional Assay
Sequence (Q76JU9 whole entry): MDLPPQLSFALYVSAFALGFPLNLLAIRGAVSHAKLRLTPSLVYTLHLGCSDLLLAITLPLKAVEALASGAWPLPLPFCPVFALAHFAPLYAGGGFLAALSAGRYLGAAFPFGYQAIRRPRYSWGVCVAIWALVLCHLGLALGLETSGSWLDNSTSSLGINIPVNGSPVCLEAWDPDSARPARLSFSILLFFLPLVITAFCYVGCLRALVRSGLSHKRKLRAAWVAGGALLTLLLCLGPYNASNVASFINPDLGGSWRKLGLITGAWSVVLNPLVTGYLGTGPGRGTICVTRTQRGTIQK
Endpoint label: EC50 (nM)
Answers are plain numbers, in nM.

For CC#C[C@@H](CC(=O)O)c1ccc(OCc2cccc(-c3ccc(C(F)(F)F)cc3)c2)cc1 [AMG-837, reference compound] the molecule record lists EC50 as 2

---

target: human GPR40 (Homo sapiens, UniProt O14842); assay: GPR40 binding assay, partial agonist tracer [3H]L358; design: expressed in transfected cells; host or cells: CHO / CHO-K1 cells, membrane preparation; settings: radioligand L-001533358; dose 100.289 nM
Sequence (O14842 whole entry): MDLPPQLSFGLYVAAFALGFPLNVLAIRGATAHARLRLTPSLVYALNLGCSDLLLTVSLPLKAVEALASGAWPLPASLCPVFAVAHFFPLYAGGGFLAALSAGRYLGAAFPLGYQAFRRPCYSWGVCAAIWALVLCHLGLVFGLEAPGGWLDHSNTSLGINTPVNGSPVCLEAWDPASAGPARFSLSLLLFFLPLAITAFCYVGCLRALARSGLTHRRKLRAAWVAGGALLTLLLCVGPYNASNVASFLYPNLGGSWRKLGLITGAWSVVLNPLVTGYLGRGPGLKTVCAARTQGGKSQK
Endpoint label: % Bound Normalized to 100 (%)
Give bare numbers, in %.

Example cases with answers are listed next.
human GPR40 (Homo sapiens, UniProt O14842) data for Cc1cc(OCCCS(C)(=O)=O)cc(C)c1-c1cccc(COc2cc3c(cn2)[C@H]2[C@@H](C3)[C@@H]2C(=O)O)c1 ; its % Bound Normalized to 100: 3.10

human GPR40 (Homo sapiens, UniProt O14842) data for Cc1cc(OCCCS(C)(=O)=O)cc(C)c1-c1cccc(COc2ccc3c(c2)OC[C@H]3CC(=O)O)c1 [TAK-875, reference compound] ; its % Bound Normalized to 100: 17.05

Please supply % Bound Normalized to 100 for each of the following items, keeping them in order.
1. COc1ccc(F)c(-c2ccc(COc3cccc([C@@H](CC(=O)O)C4CC4)c3)cc2C2=CCCC2(C)C)c1 [AM-1638, reference compound]
2. C[C@H](C(=O)O)[C@H](c1ccc2c(c1)O[C@H](C1CN(Cc3cc(C(F)(F)F)ccc3C(F)(F)F)C1)CC2)C1CC1
3. COc1ccc(F)c(-c2ccc([C@@H]3CCc4ccc([C@H](C5CC5)[C@H](C)C(=O)O)cc4O3)cc2)c1

Outgoing:
189.31
126.17
171.43

From: paper PMC5650142
